Origin of values: ChEMBL document CHEMBL1125628

Reported values of Control for individual entries
# System: Rattus norvegicus
# experimentNotes: Compound was tested for the ability to suppress food intake in a rat model after ip administration before second meal (at dose 3ug/kg, ip)
# Type: functional
*1 amine or outer side, *2 acyl side, *3 side chain or, on linkers, in order; H or OH if unused. Where a SMILES comes first, the peptide text is derived from it. [ ]: non-standard residue; d: D form. The star is where a group is joined. Phe(4-tetrazol-5-yl) = N[C@@H](Cc1ccc(-c2nnn[nH]2)cc1)C(=O)O; Propanoyl(3-(4-HOOCCH2-Ph)) = O=C(O)Cc1ccc(CCC(=O)*)cc1; Phe(4-CH2COOH) = N[C@@H](Cc1ccc(CC(=O)O)cc1)C(=O)O; X1 = O=C([C@H](Cc1ccc(Cc2nnn[nH]2)cc1)N[*:1])[*:2]; sY = N[C@@H](Cc1ccc(OS(=O)(=O)O)cc1)C(=O)O; X3 = O=C(CCc1ccc(-c2nn[nH]n2)cc1)*
measuredEndpoint: Control (%)

INSERT INTO assay_data (molecule, measuredendpoint, outputunit, valuereported) VALUES
  ('CSCC[C@H](NC(=O)[C@H](Cc1ccc(CC(=O)O)cc1)NC(C)=O)C(=O)NCC(=O)N[C@@H](Cc1c[nH]c2ccccc12)C(=O)N[C@@H](CCSC)C(=O)N[C@@H](CC(=O)O)C(=O)N[C@@H](Cc1ccccc1)C(N)=O (Ac-[Phe(4-CH2COOH)]MGWMDF-NH2)', 'Control', '%', 139),
  ('CSCC[C@H](NC(=O)[C@H](Cc1ccc(Cc2nnn[nH]2)cc1)NC(C)=O)C(=O)NCC(=O)N[C@@H](Cc1c[nH]c2ccccc12)C(=O)N[C@@H](CCSC)C(=O)N[C@@H](CC(=O)O)C(=O)N[C@@H](Cc1ccccc1)C(N)=O (Ac-[X1]MGWMDF-NH2)', 'Control', '%', 118),
  ('CSCC[C@H](NC(=O)[C@H](Cc1ccc(-c2nn[nH]n2)cc1)NC(C)=O)C(=O)NCC(=O)N[C@@H](Cc1c[nH]c2ccccc12)C(=O)N[C@@H](CCSC)C(=O)N[C@@H](CC(=O)O)C(=O)N[C@@H](Cc1ccccc1)C(N)=O (Ac-[Phe(4-tetrazol-5-yl)]MGWMDF-NH2)', 'Control', '%', 156),
  ('CSCC[C@H](NC(=O)CCc1ccc(-c2nn[nH]n2)cc1)C(=O)NCC(=O)N[C@@H](Cc1c[nH]c2ccccc12)C(=O)N[C@@H](CCSC)C(=O)N[C@@H](CC(=O)O)C(=O)N[C@@H](Cc1ccccc1)C(N)=O (X3-MGWMDF-NH2)', 'Control', '%', 142),
  ('CSCC[C@H](NC(=O)[C@H](Cc1ccc(OS(=O)(=O)O)cc1)NC(C)=O)C(=O)NCC(=O)N[C@@H](Cc1c[nH]c2ccccc12)C(=O)N[C@@H](CCSC)C(=O)N[C@@H](CC(=O)O)C(=O)N[C@@H](Cc1ccccc1)C(N)=O (Ac-[sY]MGWMDF-NH2)', 'Control', '%', 118),
  ('CSCC[C@H](NC(=O)CCc1ccc(CC(=O)O)cc1)C(=O)NCC(=O)N[C@@H](Cc1c[nH]c2ccccc12)C(=O)N[C@@H](CCSC)C(=O)N[C@@H](CC(=O)O)C(=O)N[C@@H](Cc1ccccc1)C(N)=O ({Propanoyl(3-(4-HOOCCH2-Ph))}-MGWMDF-NH2)', 'Control', '%', 172);
